test: Hematic levels in the healthy volunteer; assay type: in vivo, healthy volunteers; conditions: 4 hours; oral, 500 mg of erythromycin; average; 240 min
property: Hematic levels in the healthy volunteer

INSERT INTO results (compound, observed_value) VALUES
  ('CCC(=O)O[C@H]1[C@H](O[C@@H]2[C@@H](C)[C@H](O[C@H]3C[C@@](C)(OC)[C@@H](O)[C@H](C)O3)[C@@H](C)C(=O)O[C@H](CC)[C@@](C)(O)[C@H](O)[C@@H](C)C(=O)[C@H](C)C[C@@]2(C)O)O[C@H](C)C[C@@H]1N(C)C [RV11]', '1.21 µg/mL'),
  ('CCC(=O)O[C@H]1[C@H](O[C@@H]2[C@@H](C)[C@H](O[C@H]3C[C@@](C)(OC)[C@@H](O)[C@H](C)O3)[C@@H](C)C(=O)O[C@H](CC)[C@@](C)(O)[C@H](O)[C@@H](C)C(=O)[C@H](C)C[C@@]2(C)O)O[C@H](C)C[C@@H]1N(C)C [RV13]', '1.29 µg/mL'),
  ('CCC(=O)O[C@H]1[C@H](O[C@@H]2[C@@H](C)[C@H](O[C@H]3C[C@@](C)(OC)[C@@H](O)[C@H](C)O3)[C@@H](C)C(=O)O[C@H](CC)[C@@](C)(O)[C@H](O)[C@@H](C)C(=O)[C@H](C)C[C@@]2(C)O)O[C@H](C)C[C@@H]1N(C)C [RV15]', '1.38 µg/mL'),
  ('CCC(=O)O[C@H]1[C@H](O[C@@H]2[C@@H](C)[C@H](O[C@H]3C[C@@](C)(OC)[C@@H](O)[C@H](C)O3)[C@@H](C)C(=O)O[C@H](CC)[C@@](C)(O)[C@H](O)[C@@H](C)C(=O)[C@H](C)C[C@@]2(C)O)O[C@H](C)C[C@@H]1N(C)C [RV14]', '1.21 µg/mL');
